- System: Enterobacter cloacae
- run_description: Minimum inhibitory concentration against Enterobacter cloacae A13 (inoculum, 10e5 cfu per spot)
- Type: functional
Consider the following compounds; for each one, report its MIC.
Write the answer as a number in µg/mL, unit excluded.

# MIC of `CO/N=C(\C(=O)N[C@@H]1C(=O)N2C(C(=O)O)=C(COC(C)=O)CS[C@H]12)c1csc(N)n1` = 256

Just so you know, measured MIC for Cc1nnc(SCC2=C(C(=O)OC(C)(C)C)N3C(=O)[C@@H](NC4=NCCN4)C3SC2)s1 (stereo not given in full) came out at 64

Quick note, MIC for `CC1(C)S[C@@H]2[C@H](/N=C/N3CCCCCC3)C(=O)N2[C@H]1C(=O)O` landed at 0.25

Lab note: CC(=O)OCC1=C(C(=O)OC(C)(C)C)N2C(=O)[C@@H](Nc3nc4cc([N+](=O)[O-])ccc4[nH]3)C2SC1 (stereo not given in full) gave MIC of 40

Entry CC(=O)OCC1=C(C(=O)OC(c2ccccc2)c2ccccc2)N2C(=O)[C@@H](Nc3nc4cc(CN)ccc4[nH]3)C2SC1 (stereo not given in full) — recorded MIC = 256

Entry CC(=O)OCC1=C(C(=O)OC(c2ccccc2)c2ccccc2)N2C(=O)[C@@H](Nc3nc4cc(O)ccc4[nH]3)C2SC1 (stereo not given in full) , MIC reported as 128

---

Exercise: for every item that follows, state its recorded MIC.
- System: Escherichia coli
- run_description: Minimum inhibitory concentration against Escherichia coli DCO (inoculum, 10e4 cfu per spot)
- Type: functional
The figure you give is taken to be in µg/mL; do not add the unit.

Record CC1=C(C(=O)OC(c2ccccc2)c2ccccc2)N2C(=O)[C@@H](NC3=NCCN3C)C2SC1 (some centres undefined) . Reported MIC: 128

What the record says about CC(=O)OCC1=C(C(=O)OC(c2ccccc2)c2ccccc2)N2C(=O)[C@@H](Nc3nc4cc(C(F)(F)F)ccc4[nH]3)C2SC1 (some centres undefined) : MIC is 32

For reference, reported MIC for CC(=O)OCC1=C(C(=O)OC(c2ccccc2)c2ccccc2)N2C(=O)[C@@H](Nc3nc4cc(CO)ccc4[nH]3)C2SC1 (some centres undefined) stands at 0.5

The recorded MIC for entry CC1=C(C(=O)OC(c2ccccc2)c2ccccc2)N2C(=O)[C@@H](NC3=NCCN3)C2SC1 (some centres undefined) equals 4

Looking up CC1(C)S[C@@H]2[C@H](/N=C/N3CCCCCC3)C(=O)N2[C@H]1C(=O)O [AMDINOCILLIN] , I found its MIC recorded as 0.03

MIC reported for this compound CC(=O)OCC1=C(C(=O)OC(c2ccccc2)c2ccccc2)N2C(=O)[C@@H](Nc3nc4cc(F)ccc4[nH]3)C2SC1 (some centres undefined) : 1

MIC reported for this compound CC(=O)OCC1=C(C(=O)OC(c2ccccc2)c2ccccc2)N2C(=O)[C@@H](Nc3nc4c(N)cccc4[nH]3)C2SC1 (some centres undefined) : 4

MIC in this record for CC1=C(C(=O)OC(c2ccccc2)c2ccccc2)N2C(=O)[C@@H](NC3=NC4CC4N3)C2SC1 (some centres undefined) : 1

Data point: Cn1nnnc1SCC1=C(C(=O)OC(c2ccccc2)c2ccccc2)N2C(=O)[C@@H](Nc3nc4ccccc4[nH]3)C2SC1 (some centres undefined) ; MIC = 0.5

Entry CC(=O)OCC1=C(C(=O)OC(c2ccccc2)c2ccccc2)N2C(=O)[C@@H](Nc3nc4c(O)cccc4[nH]3)C2SC1 (some centres undefined) , MIC reported as 0.5

Quick note, MIC for CC1=C(C(=O)OC(c2ccccc2)c2ccccc2)N2C(=O)[C@@H](NC3=NC(C(N)=O)CN3)C2SC1 (some centres undefined) landed at 8

Please fill in: MIC reported for CC(=O)OCC1=C(C(=O)OC(c2ccccc2)c2ccccc2)N2C(=O)[C@@H](Nc3nc4ccccc4[nH]3)C2SC1 (some centres undefined) = 0.5

Recorded MIC (compound CC(=O)OCC1=C(C(=O)OC(c2ccccc2)c2ccccc2)N2C(=O)[C@@H](Nc3nc4cscc4[nH]3)C2SC1 (some centres undefined) ): 1

Kindly note the recorded MIC for Cn1nnnc1SCC1=C(C(=O)OC(c2ccccc2)c2ccccc2)N2C(=O)[C@@H](Nc3nc4cc(O)ccc4[nH]3)C2SC1 (some centres undefined) , which is 0.12

get_value(item= Cc1nnc(SCC2=C(C(=O)OC(c3ccccc3)c3ccccc3)N3C(=O)[C@@H](Nc4nc5ccccc5[nH]4)C3SC2)s1 (some centres undefined) , readout=MIC) returns 0.5

MIC reading for CC(=O)OCC1=C(C(=O)OC(c2ccccc2)c2ccccc2)N2C(=O)[C@@H](NC3=NCCN3)C2SC1 (some centres undefined) : 32

Per the records, this compound ( CC1=C(C(=O)OC(c2ccccc2)c2ccccc2)N2C(=O)[C@@H](NC3=NC(c4ccc(O)c(O)c4)CN3)C2SC1 (some centres undefined) ) has MIC equal to 4

Entry CC(=O)OCC1=C(C(=O)OC(c2ccccc2)c2ccccc2)N2C(=O)[C@@H](Nc3nc4cc(C)ccc4[nH]3)C2SC1 (some centres undefined) — recorded MIC = 1

---

- Tested on: Escherichia coli
- run_description: Minimum inhibitory concentration against Escherichia coli DCO (inoculum, 10e4 cfu per spot)
- Assay type: functional
measured_property: MIC (µg/mL)
State the answer as a number, implicitly in µg/mL.

Consider CC(=O)OCC1=C(C(=O)OC(C)(C)C)N2C(=O)[C@@H](Nc3nc4cc[nH]cc-4n3)C2SC1 (stereo partly drawn) . Its measured MIC is 4

Value of measured MIC for the entry CC1=C(C(=O)OC(c2ccccc2)c2ccccc2)N2C(=O)[C@@H](NC3=NC(c4ccc(C#N)cc4)CN3)C2SC1 (stereo partly drawn) : 2

// MIC value for CC(=O)OCC1=C(C(=O)OC(c2ccccc2)c2ccccc2)N2C(=O)[C@@H](Nc3nc4cc(CN)ccc4[nH]3)C2SC1 (stereo partly drawn) : 0.12

Sure, the documented MIC for CC1=C(C(=O)OC(c2ccccc2)c2ccccc2)N2C(=O)[C@@H](NC3=NC(c4ccccc4)CN3)C2SC1 (stereo partly drawn) is 1

MIC recorded for this molecule, Cc1nnc(SCC2=C(C(=O)OC(C)(C)C)N3C(=O)[C@@H](NC4=NCCN4)C3SC2)s1 (stereo partly drawn) , is 8

// field: MIC; key: CC(=O)OCC1=C(C(=O)OC(c2ccccc2)c2ccccc2)N2C(=O)[C@@H](Nc3nc4cc(CC#N)ccc4[nH]3)C2SC1 (stereo partly drawn) ; value = 0.5

MIC recorded for this molecule, CC(=O)Nc1ccc2[nH]c(N[C@@H]3C(=O)N4C(C(=O)OC(C)(C)C)=C(COC(C)=O)CSC34)nc2c1 (stereo partly drawn) , is 1

---

- Test system: Staphylococcus aureus
- run_description: Minimum inhibitory concentration against Staphylococcus aureus A6 (inoculum, 10e5 cfu per spot)
- Assay type: functional
measured_property: MIC (µg/mL)
Quick note: give the figure in µg/mL, leave out the unit.

For reference, reported MIC for CC(=O)OCC1=C(C(=O)OC(C)(C)C)N2C(=O)[C@@H](Nc3nc4cc[nH]cc-4n3)C2SC1 (some centres undefined) stands at 256

Input Cn1nnnc1SCC1=C(C(=O)OC(c2ccccc2)c2ccccc2)N2C(=O)[C@@H](Nc3nc4cc(O)ccc4[nH]3)C2SC1 (some centres undefined) . Output MIC: 2

For record CC(=O)OCC1=C(C(=O)OC(c2ccccc2)c2ccccc2)N2C(=O)[C@@H](Nc3nc4cc(C)ccc4[nH]3)C2SC1 (some centres undefined) the listed MIC is 2

---

- System: Proteus mirabilis
- run_description: Minimum inhibitory concentration against Proteus mirabilis A18 (inoculum, 10e5 cfu per spot)
- Assay type: functional
measured_property: log10 of MIC (log10 of the value in µg/mL)
Note: values are log10 of MIC expressed in µg/mL.

compound CC(=O)Nc1ccc2[nH]c(N[C@@H]3C(=O)N4C(C(=O)OC(C)(C)C)=C(COC(C)=O)CSC34)nc2c1 (stereo partly drawn) , log10 of MIC observed: 0.90

# log10 of MIC of Cn1nnnc1SCC1=C(C(=O)OC(c2ccccc2)c2ccccc2)N2C(=O)[C@@H](Nc3nc4ccccc4[nH]3)C2SC1 (stereo partly drawn) = -0.60

Record CC(=O)OCC1=C(C(=O)OC(c2ccccc2)c2ccccc2)N2C(=O)[C@@H](Nc3nc4c(N)cccc4[nH]3)C2SC1 (stereo partly drawn) . Reported log10 of MIC: 2.30

The recorded log10 of MIC for entry CC(=O)OCC1=C(C(=O)OC(c2ccccc2)c2ccccc2)N2C(=O)[C@@H](Nc3nc4c(O)cccc4[nH]3)C2SC1 (stereo partly drawn) equals 1.20

Sure, the documented log10 of MIC for CC(=O)OCC1=C(C(=O)OC(c2ccccc2)c2ccccc2)N2C(=O)[C@@H](NC3=NCCN3)C2SC1 (stereo partly drawn) is 2.41

Noted for CC1=C(C(=O)OC(c2ccccc2)c2ccccc2)N2C(=O)[C@@H](Nc3nc4ccccc4o3)C2SC1 (stereo partly drawn) : its log10 of MIC reads 3.00
